Molecular target: T1, RBFOX1 RRM RbFoxmut (Fox-RRM*) (Homo sapiens, UniProt Q9NWB1 109-208, R118D;E147R;N151S;E152T)
T1 sequence: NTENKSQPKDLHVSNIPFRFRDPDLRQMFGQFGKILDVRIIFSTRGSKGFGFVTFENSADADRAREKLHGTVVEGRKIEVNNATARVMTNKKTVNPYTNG
Experiment: EMSA; HiTS-Eq, 1 nM pool, 10 min; buffer printed only for the single-RNA assays: 10 mM Tris pH 7.5, 150 mM NaCl, 3.4 mM EDTA, 0.001% NP-40, 30 C
Conditions: tags: His6 N-terminal (pET28a); label: 5' 32P
Whole data set: some 16,000 sequences, median “ka relative to ugcaugu” near 0.096, cut for the highest 2% near 0.35. This excerpt belongs to a sample that is enriched for the highest values.

binder	binding signal
CUAUGUA (DNA:RNA) RNA: GGGAGACCGGAAUUCAGAUUGUCCCUAUGUAUUAAAUCCCGUCGUAGCCACCA DNA 1: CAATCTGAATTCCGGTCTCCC DNA 2: TGGTGGCTACGACGGGATT	0.198 KA relative to UGCAUGU
AAGCAUA (DNA:RNA) RNA: GGGAGACCGGAAUUCAGAUUGUCCAAGCAUAUUAAAUCCCGUCGUAGCCACCA DNA 1: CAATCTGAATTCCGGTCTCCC DNA 2: TGGTGGCTACGACGGGATT	0.0958 KA relative to UGCAUGU
GAUUGUA (DNA:RNA) RNA: GGGAGACCGGAAUUCAGAUUGUCCGAUUGUAUUAAAUCCCGUCGUAGCCACCA DNA 1: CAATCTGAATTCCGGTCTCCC DNA 2: TGGTGGCTACGACGGGATT	0.284 KA relative to UGCAUGU
GUCCGUA (DNA:RNA) RNA: GGGAGACCGGAAUUCAGAUUGUCCGUCCGUAUUAAAUCCCGUCGUAGCCACCA DNA 1: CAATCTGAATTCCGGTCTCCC DNA 2: TGGTGGCTACGACGGGATT	0.12 KA relative to UGCAUGU
GAAUGUA (DNA:RNA) RNA: GGGAGACCGGAAUUCAGAUUGUCCGAAUGUAUUAAAUCCCGUCGUAGCCACCA DNA 1: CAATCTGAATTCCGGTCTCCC DNA 2: TGGTGGCTACGACGGGATT	1.18 KA relative to UGCAUGU
GCACGUU (DNA:RNA) RNA: GGGAGACCGGAAUUCAGAUUGUCCGCACGUUUUAAAUCCCGUCGUAGCCACCA DNA 1: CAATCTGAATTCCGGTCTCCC DNA 2: TGGTGGCTACGACGGGATT	0.318 KA relative to UGCAUGU
UUGUUGU (DNA:RNA) RNA: GGGAGACCGGAAUUCAGAUUGUCCUUGUUGUUUAAAUCCCGUCGUAGCCACCA DNA 1: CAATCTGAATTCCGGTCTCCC DNA 2: TGGTGGCTACGACGGGATT	0.21 KA relative to UGCAUGU
GUGUGUG (DNA:RNA) RNA: GGGAGACCGGAAUUCAGAUUGUCCGUGUGUGUUAAAUCCCGUCGUAGCCACCA DNA 1: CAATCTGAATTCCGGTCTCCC DNA 2: TGGTGGCTACGACGGGATT	0.532 KA relative to UGCAUGU
UCGUCGU (DNA:RNA) RNA: GGGAGACCGGAAUUCAGAUUGUCCUCGUCGUUUAAAUCCCGUCGUAGCCACCA DNA 1: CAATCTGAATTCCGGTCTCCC DNA 2: TGGTGGCTACGACGGGATT	0.109 KA relative to UGCAUGU
CGUUGUA (DNA:RNA) RNA: GGGAGACCGGAAUUCAGAUUGUCCCGUUGUAUUAAAUCCCGUCGUAGCCACCA DNA 1: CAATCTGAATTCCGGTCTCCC DNA 2: TGGTGGCTACGACGGGATT	0.258 KA relative to UGCAUGU
GUCCGUG (DNA:RNA) RNA: GGGAGACCGGAAUUCAGAUUGUCCGUCCGUGUUAAAUCCCGUCGUAGCCACCA DNA 1: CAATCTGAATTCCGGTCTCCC DNA 2: TGGTGGCTACGACGGGATT	0.146 KA relative to UGCAUGU
GCAUGUA (DNA:RNA) RNA: GGGAGACCGGAAUUCAGAUUGUCCGCAUGUAUUAAAUCCCGUCGUAGCCACCA DNA 1: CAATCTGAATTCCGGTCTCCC DNA 2: TGGTGGCTACGACGGGATT	1.04 KA relative to UGCAUGU
UUCUUCA (DNA:RNA) RNA: GGGAGACCGGAAUUCAGAUUGUCCUUCUUCAUUAAAUCCCGUCGUAGCCACCA DNA 1: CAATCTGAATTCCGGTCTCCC DNA 2: TGGTGGCTACGACGGGATT	0.111 KA relative to UGCAUGU
UAUUUAA (DNA:RNA) RNA: GGGAGACCGGAAUUCAGAUUGUCCUAUUUAAUUAAAUCCCGUCGUAGCCACCA DNA 1: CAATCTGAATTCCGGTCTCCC DNA 2: TGGTGGCTACGACGGGATT	0.0892 KA relative to UGCAUGU
GGAUGUA (DNA:RNA) RNA: GGGAGACCGGAAUUCAGAUUGUCCGGAUGUAUUAAAUCCCGUCGUAGCCACCA DNA 1: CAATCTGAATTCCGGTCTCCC DNA 2: TGGTGGCTACGACGGGATT	0.285 KA relative to UGCAUGU
CCCGCAU (DNA:RNA) RNA: GGGAGACCGGAAUUCAGAUUGUCCCCCGCAUUUAAAUCCCGUCGUAGCCACCA DNA 1: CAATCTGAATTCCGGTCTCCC DNA 2: TGGTGGCTACGACGGGATT	0.0703 KA relative to UGCAUGU
GCAUAUA (DNA:RNA) RNA: GGGAGACCGGAAUUCAGAUUGUCCGCAUAUAUUAAAUCCCGUCGUAGCCACCA DNA 1: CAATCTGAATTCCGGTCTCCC DNA 2: TGGTGGCTACGACGGGATT	0.169 KA relative to UGCAUGU
